Every entry's value here was drawn from BigSolDB 2.1.

conditions: in chloroform, 288.55 K
quantity: solubility (mole fraction)
Response field accepts a number only; no unit should be typed.

*Q* Report solubility (mole fraction) for CC1(C)COP(=O)(C(C)(C)O)OC1 please.
*A* 0.0147

----------
settings: in acetone, 312.95 K
quantity: solubility (mole fraction)
Answer with a number only.

*Q* // lookup solubility (mole fraction) for CC1(C)COP(=O)(C(C)(C)O)OC1
*A* 0.00821

----------
settings: in water, 323.15 K
quantity: solubility (mole fraction)
Give the value as a plain number.

*Q* # input compound: CC1(C)COP(=O)(C(C)(C)O)OC1 ; wanted: its solubility (mole fraction)
*A* 0.00911

----------
conditions: in ethyl acetate, 318 K
quantity: solubility (mole fraction)
Lab note: record the figure alone, no unit after it.

*Q* Using the record for CC1(C)COP(=O)(C(C)(C)O)OC1 , report its solubility (mole fraction).
*A* 0.00372

----------
conditions: in chloroform, 303.25 K
quantity: solubility (mole fraction)
Hey, just send me the number, nothing else.

*Q* For CC1(C)COP(=O)(C(C)(C)O)OC1 , what is its reported solubility (mole fraction)?
*A* 0.0244

----------
conditions: in ethanol, 323.15 K
quantity: solubility (mole fraction)
Keep the answer to the number alone.

*Q* Which value of solubility (mole fraction) has been reported for CC1(C)COP(=O)(C(C)(C)O)OC1 in the records?
*A* 0.065

----------
conditions: in acetone, 288.25 K
quantity: solubility (mole fraction)
Please state the value as a number alone, without comment.

*Q* # solubility (mole fraction) lookup, item CC1(C)COP(=O)(C(C)(C)O)OC1
*A* 0.00329

----------
settings: in acetonitrile, 288.85 K
quantity: solubility (mole fraction)
# respond with the number and nothing more

*Q* // returns reported solubility (mole fraction) for input CC1(C)COP(=O)(C(C)(C)O)OC1
*A* 0.00295

----------
details: in ethyl acetate, 303.35 K
quantity: solubility (mole fraction)
// response body must contain only the number

*Q* What value of measured solubility (mole fraction) is listed for CC1(C)COP(=O)(C(C)(C)O)OC1 ?
*A* 0.00187

----------
conditions: in ethyl acetate, 342.85 K
quantity: solubility (mole fraction)
Number, no unit, nothing else.

*Q* Entry CC1(C)COP(=O)(C(C)(C)O)OC1 has what solubility (mole fraction)?
*A* 0.0102

----------
conditions: in ethanol, 318.05 K
quantity: solubility (mole fraction)
The answer should be written as a number, with no unit following it.

*Q* Query: solubility (mole fraction); subject: CC1(C)COP(=O)(C(C)(C)O)OC1
*A* 0.0592

----------
conditions: in water, 294.7 K
quantity: solubility (mole fraction)
Respond numerically, and do not add a unit to the figure.

*Q* Which solubility (mole fraction) value belongs to CC1(C)COP(=O)(C(C)(C)O)OC1 ?
*A* 0.007

----------
conditions: in acetonitrile, 318.3 K
quantity: solubility (mole fraction)

*Q* Fill in: solubility (mole fraction) of CC1(C)COP(=O)(C(C)(C)O)OC1 is ___
*A* 0.00901

----------
conditions: in methanol, 322.65 K
quantity: solubility (mole fraction)
Number only, no unit.

*Q* Report solubility (mole fraction) for CC1(C)COP(=O)(C(C)(C)O)OC1 please.
*A* 0.0968

----------
settings: in chloroform, 313.15 K
quantity: solubility (mole fraction)
Form: value (number only, do not type unit).

*Q* Name the recorded solubility (mole fraction) for CC1(C)COP(=O)(C(C)(C)O)OC1 .
*A* 0.0364
